species: Rattus norvegicus; test: Selectivity ratio of IC50 for delta opioid receptor in Wistar rat brain membrane to IC50 for mu opioid receptor in Wistar rat brain membrane; assay type: cell membranes
Where a SMILES comes first, the peptide text is derived from it. Bridges are numbered along the chain shown (N, C = ends). [ ]: non-standard residue; d: D form. Dmt = Cc1cc(O)cc(C)c1C[C@H](N)C(=O)O
# maps each entry to its Ratio IC50

Look over these answered cases.
>>> result("NC(=O)[C@@H]1CCCN1C(=O)[C@H](Cc1ccccc1)NC(=O)[C@@H]1CCCN1C(=O)[C@@H](N)Cc1ccc(O)cc1 [MORPHICEPTIN] (H-YPFP-NH2)")
"> 17.7"
>>> result("NC(=O)[C@@H]1CCCCNC(=O)C[C@@H](NC(=O)[C@@H](N)Cc2ccc(O)cc2)C(=O)N[C@@H](Cc2ccccc2)C(=O)N2CCC[C@@H]2C(=O)N1")
"> 65.3"
>>> result("Cc1cc(O)cc(C)c1C[C@H](N)C(=O)N[C@@H]1CCCCNC(=O)C[C@@H](C(N)=O)NC(=O)[C@H](Cc2ccccc2)NC(=O)[C@H](Cc2ccccc2)NC1=O (H-[Dmt][dK]FFD-NH2; lactam 2-5)")
"> 1000"

Request: Which Ratio IC50 is listed for NC(=O)[C@@H]1CC(=O)NCCCC[C@@H](NC(=O)[C@@H](N)Cc2ccc(O)cc2)C(=O)N[C@@H](Cc2ccccc2)C(=O)N2CCC[C@@H]2C(=O)N1 ?
Result: > 11.2
